Reported IC50 values for a set of compounds
Target System: human CXCR2 (Homo sapiens)
Construct: expressed in transfected cells; host or cells: BAF/3 cells
Sequence (P25025 whole entry): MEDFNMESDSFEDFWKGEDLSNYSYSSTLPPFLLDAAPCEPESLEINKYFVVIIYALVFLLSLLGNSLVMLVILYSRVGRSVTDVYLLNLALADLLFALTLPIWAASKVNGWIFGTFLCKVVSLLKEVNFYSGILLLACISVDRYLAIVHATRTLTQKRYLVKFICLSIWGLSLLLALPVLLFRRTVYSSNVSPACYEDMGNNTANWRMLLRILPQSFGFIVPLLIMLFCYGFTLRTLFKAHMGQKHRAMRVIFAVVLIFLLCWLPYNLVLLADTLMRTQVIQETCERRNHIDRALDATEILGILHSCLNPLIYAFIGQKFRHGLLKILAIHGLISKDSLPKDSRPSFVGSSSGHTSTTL
Measurement Notes: Chemotaxis assay 1, transfected cell line: inhibition of CXCL1 induced chemotaxis of BAF/3 cells expressing human CXCR2
Format: cell-based
Details: CXCL1 (3 nM) induced chemotaxis of BAF/3 cells expressing human CXCR2, 4 hours, Cell Titer Glo readout
Provide only the numeric value, understood in nM.

Consider the reported IC50 for these compounds:
| Compound | Target System | Property | Test Value |
| --- | --- | --- | --- |
| CC[C@@H](Nc1c(Nc2ccc(Cl)c(S(=O)(=O)N3CCC4(CC3)COCCN4)c2O)c(=O)c1=O)c1ccc(C(F)(F)F)o1 | human CXCR2 (Homo sapiens) | IC50 | 54.4 |
| O=c1c(Nc2ccc(Cl)c(S(=O)(=O)N3CCN4CCCC4C3)c2O)c(Nc2cccc(F)c2Cl)c1=O (stereo not shown) | human CXCR2 (Homo sapiens) | IC50 | 5.1 |
| CC[C@@H](Nc1c(Nc2ccc(Cl)c(S(=O)(=O)N3CCN4CCOC[C@H]4C3)c2O)c(=O)c1=O)c1ccc(C)o1 | human CXCR2 (Homo sapiens) | IC50 | 4.9 |

Moving on to another compound below.
IC50 recorded for this compound, CC[C@@H](Nc1c(Nc2ccc(Cl)c(S(=O)(=O)N3CCN4CCOCC4C3)c2O)c(=O)c1=O)c1ccccc1 (stereo partly shown) , is 0.6

###

Target System: human CXCR2 (Homo sapiens)
Measurement Notes: Chemotaxis assay 1, transfected cell line: inhibition of CXCL1 induced chemotaxis of BAF/3 cells expressing human CXCR2
Details: CXCL1 (3 nM) induced chemotaxis of BAF/3 cells expressing human CXCR2, 4 hours, Cell Titer Glo readout
Property: IC50 (nM)
Write the answer as a number in nM, unit excluded.

Some molecules with recorded IC50:
| Molecule | Target System | Property | Test Value |
| --- | --- | --- | --- |
| CC[C@@H](Nc1c(Nc2ccc(Cl)c(S(=O)(=O)N3CCC4(CC3)COCCN4)c2O)c(=O)c1=O)c1ccc(C)o1 | human CXCR2 (Homo sapiens) | IC50 | 8.7 |
| O=c1c(Nc2ccc(Cl)c(S(=O)(=O)N3CCN4CCOCC4C3)c2O)c(Nc2cccc(F)c2Cl)c1=O (stereo not shown) | human CXCR2 (Homo sapiens) | IC50 | 37.8 |
| CC[C@@H](Nc1c(Nc2ccc(Cl)c(S(=O)(=O)N3CCN4CCOC[C@H]4C3)c2O)c(=O)c1=O)c1ccc(C(F)(F)F)o1 | human CXCR2 (Homo sapiens) | IC50 | 56.6 |
| CC[C@@H](Nc1c(Nc2ccc(Cl)c(S(=O)(=O)N3CCN4CCCC4C3)c2O)c(=O)c1=O)c1ccc(C)o1 (stereo partly shown) | human CXCR2 (Homo sapiens) | IC50 | 0.9 |

For `CC[C@@H](Nc1c(Nc2ccc(Cl)c(S(=O)(=O)N3CCC4(CCCC4)CC3)c2O)c(=O)c1=O)c1ccc(C)o1` the molecule record lists IC50 as 11.6

Form: molecule = CC[C@@H](Nc1c(Nc2ccc(Cl)c(S(=O)(=O)N3CCN4CCCC4C3)c2O)c(=O)c1=O)c1ccccc1 (stereo partly shown) ; IC50 = 0.7

get_value(item= `CC[C@@H](Nc1c(Nc2ccc(Cl)c(S(=O)(=O)N3CCC4(CCCC4)CC3)c2O)c(=O)c1=O)c1ccccc1` , readout=IC50) returns 149

The reported numbers originate from patent US8648070B2.
